Attribution: paper PMC6332235

Test system: human cervix carcinoma HeLa cells
procedure_summary: Cytostatic activity: inhibition of proliferation of human cervix carcinoma HeLa cells
Type: cell-based
test_settings: Homo sapiens, HeLa, 72 h, read-out: IC50 (HeLa)
pIC50: −log10 of the molar value.
measurement_label: pIC50

Look up pIC50 of CCOP(=O)(COCCn1cc(Cn2cnc3c(Cl)nc(N)nc32)nn1)OCC [Compound 17h] and report it.
< 3.60

Let me know recorded pIC50 for CCOP(=O)(Cn1cc(Cn2cnc3c(Cl)nc(N)nc32)nn1)OCC [Compound 17a] , thanks.
≤ 3.60

Give a short answer stating reported pIC50 for CCOP(=O)(OCC)C(O)CCn1cc(Cn2cnc3c(Cl)nc(N)nc32)nn1 (centres unmarked) [Compound 17g] .
< 3.60

Answer with reported pIC50 of CCOP(=O)(CC(O)Cn1cc(Cn2cnc3c(Cl)nc(N)nc32)nn1)OCC (centres unmarked) [Compound 17f]
< 3.60

Give the reported pIC50 for this compound. CCOP(=O)(CCCCn1cc(Cn2cnc3c(Cl)nc(N)nc32)nn1)OCC [Compound 17d]
≤ 3.60

Give pIC50 for CCOP(=O)(OCC)C(O)Cn1cc(Cn2cnc3c(Cl)nc(N)nc32)nn1 (centres unmarked) [Compound 17e]
< 3.60

Using the record for CCOP(=O)(CCn1cc(Cn2cnc3c(=O)[nH]c(N)nc32)nn1)OCC [Compound 16b] , state its measured pIC50.
< 3.60

State its pIC50 for this compound: CCOP(=O)(Cn1cc(Cn2cnc3c(=O)[nH]c(N)nc32)nn1)OCC [Compound 16a]
< 3.60

Look up pIC50 of CCOP(=O)(CCOCCn1cc(Cn2cnc3c(Cl)nc(N)nc32)nn1)OCC [Compound 17i] and report it.
< 3.60

// Input: CCOP(=O)(CCCn1cc(Cn2cnc3c(Cl)nc(N)nc32)nn1)OCC [Compound 17c] . Output its pIC50 only.
≤ 3.60

Give the reported pIC50 for this compound. CCOP(=O)(COCCn1cc(Cn2cnc3c(=O)[nH]c(N)nc32)nn1)OCC [Compound 16h]
≤ 3.60
